# Measured target: TRIP8b(241-602)
# Protocol description: fluorescence polarisation
Recorded metric: IC50

1) DAEKPRFASNL [unlabeled HCN1 peptide]: 700 nM
2) EPVRSKLPSNL [unlabeled HCN4 peptide]: 1930 nM
3) DSARSRLSSNL [unlabeled HCN2 peptide]: 760 nM
